Sourced from PubChem BioAssay (NCI)

tested on: HCC-2998 colon; test: NCI tumour cell line growth inhibition, 48 h
So I've got a bunch of compounds here, and I need their TGI values.
Give bare numbers, in µM.

In the examples that follow, each entry is paired with its recorded TGI.
compound: CC(C(=O)n1c2ccccc2c2ccccc21)N(c1ccccc1)c1ccccc1 (centres undefined)
TGI / µM: 30.1
--
compound: O=C(Nc1ccc(Cl)c(Cl)c1)Nc1ccccc1O
TGI / µM: 19.6
--
compound: C=C1CC[C@@H](C(C)C)C[C@@H]2[C@H]([C@H](O)C[C@]2(C)O)[C@@]2(C)CC[C@@H]1O2
TGI / µM: 26.9

Next up:
Query: Look up TGI for this compound: `CCCCCc1ccc(S(=O)(=O)Nc2cc(-c3csc(NC(C)=O)n3)ccc2N2CCN(C)CC2)cc1`
Reply: 5.47

###

test system: SF-295 CNS; experiment: NCI tumour cell line growth inhibition, 48 h; in the data active = GI50 below about 0.43 µM; inactive = the rest
Your response should consist of one outcome taken from active, inactive

compound: COC(C(=O)[C@@H](O)[C@@H](C)O)[C@@H]1Cc2cc3cc(O[C@H]4C[C@@H](O[C@H]5C[C@@H](O)[C@H](O)C(C)O5)[C@H](O)C(C)O4)c(C)c(O)c3c(O)c2C(=O)[C@H]1O[C@H]1C[C@@H](O[C@H]2C[C@@H](O[C@H]3C[C@@H](O)[C@H](OC)C(C)O3)[C@@H](O)C(C)O2)[C@H](O)C(C)O1 (some centres not stated)
tested_target: SF-295 CNS
qualitative_label: active

Query: Call for entry `CC/C=C/C/C=C/C/C=C/C/C=C/C/C=C/C/C=C/CCC(=O)Nc1ccn([C@@H]2O[C@H](CO)[C@@H](O)C2(F)F)c(=O)n1` :
Reply: active

###

So I've got a bunch of compounds here, and I need their TGI values.
test system: SR leukemia; assay: NCI tumour cell line growth inhibition, 48 h

Need TGI for each of these compounds.
1. CC1=C(C(=O)Nc2ccccc2)C(c2ccc(C3C(C(=O)Nc4ccccc4)=C(C)NC(C)=C3C(=O)Nc3ccccc3)cc2)C(C(=O)Nc2ccccc2)=C(C)N1
2. O=C(O)c1ccc2c(c1)CC1(C2)Cc2cc3c(cc2C1=O)CCC3 (centres undefined)

Reply:
1: 5.41 µM; 2: > 100 µM

Need TGI for each of these compounds.
1. Cc1ccc(S(=O)(=O)NC(=O)NC2=NC(C)(C)N(c3ccc(Cl)c(Cl)c3)C(N)=N2)cc1
2. O=C(OCc1ccc2c(Cl)cc(Cl)c(O)c2n1)N1CCN(C(=O)c2cc3cc(F)ccc3[nH]2)CC1
3. COC(=O)c1cccc2cccc(C(=O)Nc3ccc(Cl)cc3)c12
4. CC1=C(C(=O)NNS(=O)(=O)c2ccc(C)cc2)CC(C(=O)NNS(=O)(=O)c2ccc(C)cc2)=C(C)N1
5. COc1ccc(N=C2C(=S)N(c3ccc(OC)cc3)/C(=N/S(=O)(=O)c3ccccc3)N2c2ccccc2)cc1

Reply:
["> 100 µM", "> 100 µM", "50.8 µM", "> 100 µM", "> 66.4 µM"]

Need TGI for each of these compounds.
1. O=c1c2ccccc2nc(-c2ccccc2)n1NC(=S)Nc1ccccc1
2. Nc1ccc2nc3n(c2c1)C(=O)c1ccccc1-3

Reply:
["> 100 µM", "> 100 µM"]

###

test system: SW-620 colon; test: NCI tumour cell line growth inhibition, 48 h; in the data active = GI50 below about 0.43 µM; inactive = the rest
Your response should consist of one outcome taken from active, inactive

compound: CO/N=C(/C)c1cccc(Nc2cc(-c3ccccc3)nc3ccc(OC)cc23)c1
qualitative_label: inactive
//
compound: Nc1nc(N)c2cc(CNc3ccc(C(=O)NC(CC(=O)O)C(=O)O)c(Cl)c3)ccc2n1 (centres undefined)
qualitative_label: active
//
compound: O=c1oc2ccc(Br)cc2c(=O)n1-c1ccc(F)cc1F
qualitative_label: inactive
//
compound: Clc1ccc(N=CNc2ccc(-c3nc4ccccc4o3)cc2)cc1
qualitative_label: inactive

Query: Call for entry `O=c1[nH]c(=O)n([C@H]2CCCO2)cc1F` :
Reply: inactive

Query: Call for entry `O=C(N/N=C/c1ccc([N+](=O)[O-])o1)c1ccc(O)cc1` :
Reply: inactive

Query: Call for entry `O=C(Nc1ccc(-n2cc(-c3ccncc3)c(-c3ccc(O)c(Cl)c3)n2)cc1)Nc1cccc(Cl)c1Cl` :
Reply: inactive

Query: Call for entry `N.N.NCCCCCCCCCN.O=C([O-])CC(=O)[O-].O=C([O-])CC(=O)[O-].[Pt+4].[Pt+4]` :
Reply: inactive

###

tested on: LOX IMVI melanoma; experiment: NCI tumour cell line growth inhibition, 48 h; in the data active means GI50 below about 0.43 µM; inactive means the rest
Your response should consist of one outcome taken from T for active, F for inactive

Example entries and their recorded answers appear below.
compound: Cn1cc(-c2ccc(-c3cncc(Cl)c3N3CCC4(CCNC4=O)CC3)cc2)cn1
qualitative_label: F
//
compound: O=C(NO)c1ccc(CN(c2cnccn2)c2cnccn2)cc1
qualitative_label: F
//
compound: Cc1cc(C)n(-c2nnc3n2N=C(c2ccc(-c4ccccc4)cc2)CS3)n1
qualitative_label: F
//
compound: Clc1ccc(N=CNc2ccc(-c3nc4ccccc4o3)cc2)cc1
qualitative_label: F
//
compound: COC(=O)CCC1=C(CC(=O)OC)C(C)=N/C1=C\c1[nH]c(-c2ccc[nH]2)cc1OC
qualitative_label: F
//
compound: O=C1CSC(c2ccc(-c3nc4ccccc4s3)cc2)=N1
qualitative_label: F

Query: Call for entry CCN1C(=O)N(CC)C2Nn3c(s/c(=C4\C(=O)N(C)c5ccccc54)c3=O)=NC21 (configuration not stated) :
Reply: F

Query: Call for entry `NC(=S)N/N=C/c1cc(-c2cccc(N)c2)ccn1` :
Reply: F

Query: Call for entry CCCCCCCCCCCCOC1C(C(CC(=O)NCCN2CCCC2)NS(=O)(=O)c2cc(Cl)cc(Cl)c2)OC2OC(C)(C)OC21 (configuration not stated) :
Reply: F

Query: Call for entry `COc1ccc(Cc2cnc(NC(=O)c3ccc4c(c3)OCCO4)s2)cc1` :
Reply: T

Query: Call for entry `C=C1CC[C@@H](C(C)C)C[C@@H]2[C@H]([C@H](O)C[C@]2(C)O)[C@@]2(C)CC[C@@H]1O2` :
Reply: F

Query: Call for entry `N.N.NCCCCCCCCCN.O=C([O-])CC(=O)[O-].O=C([O-])CC(=O)[O-].[Pt+4].[Pt+4]` :
Reply: F

Query: Call for entry `O=C(NCc1ccc(S(=O)(=O)c2cc(F)cc(F)c2)cc1)c1ccc2nccn2c1` :
Reply: F

Query: Call for entry `COC(=O)c1cc(/C=C/c2ccc(S(N)(=O)=O)cc2)ccc1O` :
Reply: F

Query: Call for entry C=CCN1CC2CON(C(=O)C(OC)(c3ccccc3)C(F)(F)F)C2C1C(C)C (configuration not stated) :
Reply: F

Query: Call for entry `O=C(OCc1ccc2c(Cl)cc(Cl)c(O)c2n1)N1CCN(C(=O)c2cc3cc(F)ccc3[nH]2)CC1` :
Reply: F

Query: Call for entry `Clc1cc(Cl)cc(Nc2ccc3cc(OCCCN4CCOCC4)ccc3n2)c1` :
Reply: F

###

test system: OVCAR-4 ovarian; assay: NCI tumour cell line growth inhibition, 48 h; in the data active = GI50 below about 0.43 µM; inactive = the rest
Your response should consist of one outcome taken from active, inactive

Example entries and their recorded answers appear below.
compound: O=C(CSC(c1ccccc1)c1ccccc1)N/N=C/c1ccco1
qualitative_label: inactive
--
compound: O=C([CH-]C(=O)c1ccccc1)c1ccccc1.O=C([CH-]C(=O)c1ccccc1)c1ccccc1.[O]=[U+2]=[O]
qualitative_label: inactive
--
compound: [F][Sn]([F])([c]1ccccc1)[c]1ccccc1
qualitative_label: inactive
--
compound: O=C(N/N=C/c1c(Cl)cccc1Cl)c1ccc(C(F)(F)F)nc1Nc1cccc(C(F)(F)F)c1
qualitative_label: inactive
--
compound: COC(C(=O)[C@@H](O)[C@@H](C)O)[C@@H]1Cc2cc3cc(O[C@H]4C[C@@H](O[C@H]5C[C@@H](O)[C@H](O)C(C)O5)[C@H](O)C(C)O4)c(C)c(O)c3c(O)c2C(=O)[C@H]1O[C@H]1C[C@@H](O[C@H]2C[C@@H](O[C@H]3C[C@@H](O)[C@H](OC)C(C)O3)[C@@H](O)C(C)O2)[C@H](O)C(C)O1 (stereo partly drawn)
qualitative_label: active
--
compound: S=C1SC2=Nc3ccccc3CN2C2=NCCN12
qualitative_label: inactive
--
compound: COC(=O)c1cc(/C=C/c2ccc(S(N)(=O)=O)cc2)ccc1O
qualitative_label: inactive

Query: Call for entry C=CCN1CC2CON(C(=O)C(OC)(c3ccccc3)C(F)(F)F)C2C1C(C)C (stereo not drawn) :
Reply: inactive

###

tested on: M14 melanoma; assay: NCI tumour cell line growth inhibition, 48 h; in the data active = GI50 below about 0.43 µM; inactive = the rest
Your response should consist of one outcome taken from active, inactive

Example entries and their recorded answers appear below.
compound: CN1CCN(c2ccc(Nc3ncc4cc(C#N)c(=O)n(C5CCCC5)c4n3)cc2)CC1
tested_target: M14 melanoma
qualitative_label: inactive
--
compound: O=C(N/N=C/c1c(Cl)cccc1Cl)c1ccc(C(F)(F)F)nc1Nc1cccc(C(F)(F)F)c1
tested_target: M14 melanoma
qualitative_label: inactive
--
compound: O=C(OCc1ccc2c(Cl)cc(Cl)c(O)c2n1)N1CCN(C(=O)c2cc3cc(F)ccc3[nH]2)CC1
tested_target: M14 melanoma
qualitative_label: inactive
--
compound: CC/C=C/C/C=C/C/C=C/C/C=C/C/C=C/C/C=C/CCC(=O)Nc1ccn([C@@H]2O[C@H](CO)[C@@H](O)C2(F)F)c(=O)n1
tested_target: M14 melanoma
qualitative_label: active
--
compound: O=C(NO)c1ccc(CN(c2cnccn2)c2cnccn2)cc1
tested_target: M14 melanoma
qualitative_label: inactive

Query: Call for entry `CCCCCCCCCCN1CCC(N2CCCCC2)CC1` :
Reply: inactive

Query: Call for entry `CO/N=C(/C)c1cccc(Nc2cc(-c3ccccc3)nc3ccc(OC)cc23)c1` :
Reply: inactive

Query: Call for entry `CCN(CC)c1cc2oc3cc(N)cc(=N)c-3nc2cc1C` :
Reply: inactive

Query: Call for entry `C=C1CC[C@@H](C(C)C)C[C@@H]2[C@H]([C@H](O)C[C@]2(C)O)[C@@]2(C)CC[C@@H]1O2` :
Reply: inactive
